// provenance: the supplement of paper PMC8728848

EXPERIMENTAL SYSTEM: Gal(b1-4)GlcNAc(b1-2)Man(a1-3)[Gal(b1-4)GlcNAc(b1-2)Man(a1-6)]Man(b1-4)GlcNAc(b1-4)[Fuc(a1-6)]GlcNAc
MEASUREMENT PROTOCOL: glycan array binding signal (z-score within array); higher = stronger binding
REPORTED CONDITIONS: glycan notation: IUPAC condensed, linker removed
The full list was thinned out, with the strongest signals kept by preference.
OBSERVATION TYPE: glycan array binding signal (z-score)

Previously resolved entries follow.
{"BINDER": "MUB70 (Lactobacillus reuteri) (protein) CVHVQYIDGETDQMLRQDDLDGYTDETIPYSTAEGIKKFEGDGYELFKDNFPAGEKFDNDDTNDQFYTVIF", "glycan array binding signal (z-score)": -0.056}
{"BINDER": "ASAL (Allium sativum), P83886 (protein) MGRTTSSPKAMMRIATVAAILTILASTCMARNVLTNGEGLYAGQSLDVEQYKFIMQDDCNLVLYEYSTPIWASNTGVTGKNGCRAVMQRDGNFVVYDVNGRPVWASNSVRGNGNYILVLQKDRNVVIYGSDIWSTGTYRRSVGGAVVMAMNGTVDGGSVIGPVVVNQNVTAAIRKVGTGAA", "glycan array binding signal (z-score)": 7.04}
{"BINDER": "BDCA-2 (Homo sapiens), Q8WTT0 (protein) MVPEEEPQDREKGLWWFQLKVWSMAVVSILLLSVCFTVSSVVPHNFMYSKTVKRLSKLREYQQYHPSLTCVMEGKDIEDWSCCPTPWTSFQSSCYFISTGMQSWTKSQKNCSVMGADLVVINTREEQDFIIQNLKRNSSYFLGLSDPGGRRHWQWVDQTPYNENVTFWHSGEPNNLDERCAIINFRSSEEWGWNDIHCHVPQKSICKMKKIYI", "glycan array binding signal (z-score)": 3.64}
{"BINDER": "SUN4 (Saccharomyces cerevisiae), P53616 (protein) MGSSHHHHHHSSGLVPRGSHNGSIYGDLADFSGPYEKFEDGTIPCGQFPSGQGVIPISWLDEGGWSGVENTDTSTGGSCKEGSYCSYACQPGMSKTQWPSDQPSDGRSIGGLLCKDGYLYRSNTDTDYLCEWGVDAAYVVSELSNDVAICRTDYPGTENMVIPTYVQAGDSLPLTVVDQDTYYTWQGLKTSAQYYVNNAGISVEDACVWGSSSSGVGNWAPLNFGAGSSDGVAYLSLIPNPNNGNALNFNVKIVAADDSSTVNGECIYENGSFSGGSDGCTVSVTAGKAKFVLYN", "glycan array binding signal (z-score)": 0.829}
{"BINDER": "HML-Native (Hypnea musciformis), P84871 (protein) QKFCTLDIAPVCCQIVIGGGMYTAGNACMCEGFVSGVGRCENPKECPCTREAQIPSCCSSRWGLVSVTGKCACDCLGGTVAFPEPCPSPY", "glycan array binding signal (z-score)": 5.65}

Turning to the following binder.
Could you tell me which glycan array binding signal (z-score) is on file for CLECSF8 (Mus musculus), Q9Z2H6 (protein) HYFLRWTRGSVVKLSDYHTRVTCIREEPQPGATGGTWTCCPVSWRAFQSNCYFPLNDNQTWHESERNCSGMSSHLVTINTEAEQNFVTQLLDKRFSYFLGLADENVEGQWQWVDKTPFNPHTVFWEKGESNDFMEEDCVVLVHVHEKWVWNDFPCHFEVRRICKLPGITFNWKPSK ?
-0.424
